Target: alpha2B adrenergic receptors (Homo sapiens, UniProt P18089)
Construct: expressed in transfected cells; host or cells: NIH-3T3
Test: Receptor Selection and Amplification Technology (RSAT) assay, alpha2B
Format: cell-based
Settings: fraction of maximal effect of standard full agonist brimonidine (UK14304)
From the text: The imidazole-2-thione compounds of the invention are agonists of alpha2 adrenergic receptors, particularly they tend to be specific or selective agonists of alpha2B and/or to a lesser extent alpha2C adrenergic receptors, in preference over alpha2A adrenergic receptors. […] Al., 1995, Pharmacol. Toxicol. 76, pp. 308-311 (incorporated herein by reference) and is also described below. […]
Cut-off 0.9 on Alpha 2B intrinsic activity, inclusive. At or above means class 1; below means class 0.

compound: CC1=CC(Cc2c[nH]c(=S)[nH]2)CC1 (stereo not drawn)
target-system: alpha2B adrenergic receptors (Homo sapiens, UniProt P18089)
group-label: class 0
--
compound: C#CC1=CCC(Cc2c[nH]c(=S)[nH]2)CC1 (stereo not drawn)
target-system: alpha2B adrenergic receptors (Homo sapiens, UniProt P18089)
group-label: class 0
--
compound: CC1=C(Br)C(Cc2c[nH]c(=S)[nH]2)CC1 (stereo not drawn)
target-system: alpha2B adrenergic receptors (Homo sapiens, UniProt P18089)
group-label: class 1
--
compound: S=c1[nH]cc(CC2CCSc3ccccc32)[nH]1 (stereo not drawn)
target-system: alpha2B adrenergic receptors (Homo sapiens, UniProt P18089)
group-label: class 1
--
compound: S=c1[nH]cc(CC2CCCc3cccc(Cl)c32)[nH]1 (stereo not drawn)
target-system: alpha2B adrenergic receptors (Homo sapiens, UniProt P18089)
group-label: class 0

Next up:
Would you say S=c1[nH]cc(C2Cc3ccccc3C2)[nH]1 shows Alpha 2B intrinsic activity at minimum 0.9?
class 1

* * *

Molecular target: UniProt P18089
Sequence (P18089 1-450): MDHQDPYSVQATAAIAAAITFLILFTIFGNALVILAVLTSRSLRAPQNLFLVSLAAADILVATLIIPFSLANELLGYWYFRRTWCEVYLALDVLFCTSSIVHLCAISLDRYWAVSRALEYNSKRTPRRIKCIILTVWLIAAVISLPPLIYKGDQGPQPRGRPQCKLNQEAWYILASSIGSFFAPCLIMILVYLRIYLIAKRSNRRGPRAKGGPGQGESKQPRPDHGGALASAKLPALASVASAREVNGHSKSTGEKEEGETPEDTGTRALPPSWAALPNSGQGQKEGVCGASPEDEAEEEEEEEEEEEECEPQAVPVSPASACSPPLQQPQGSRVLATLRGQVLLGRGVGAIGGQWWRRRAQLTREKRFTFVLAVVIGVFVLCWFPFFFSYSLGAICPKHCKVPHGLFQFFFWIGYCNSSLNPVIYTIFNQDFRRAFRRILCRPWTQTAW
Assay: Receptor Selection and Amplification Technology (RSAT) assay, alpha2B
Conditions: NA = not active at concentrations less than 10 micromolar, read-out: Alpha 2B EC50
outcome-measure: EC50 (nM)
The reply should contain only the number, in nM.

// known answers, use as guide
compound: S=c1[nH]cc(C[C@@H]2CCc3ccccc32)[nH]1
value-units: nM
EC50: 24.5
--
compound: Fc1cc(F)c2c(c1)CC(c1c[nH]c(=S)[nH]1)C2 (stereo not shown)
value-units: nM
EC50: 6.5
--
compound: S=c1[nH]cc(CC2Cc3ccccc3C2)[nH]1
value-units: nM
EC50: 110
--
compound: S=c1[nH]cc(CC2CCSc3ccccc32)[nH]1 (stereo not shown)
value-units: nM
EC50: 286
--
compound: S=c1[nH]cc(CC2CCc3cc(Br)ccc32)[nH]1 (stereo not shown)
value-units: nM
EC50: 158

Field request: EC50 | item: S=c1[nH]cc(C2Cc3cccc(I)c3C2)[nH]1 (stereo not shown)
7

Name the recorded EC50 for Cc1cccc2c1CC(c1c[nH]c(=S)[nH]1)C2 (stereo not shown) .
3

Give the measured EC50 of Fc1cccc2c1CCC2Cc1c[nH]c(=S)[nH]1 (stereo not shown) .
34.5

Find the recorded EC50 belonging to Cc1cccc2c1C(=O)C(Cc1c[nH]c(=S)[nH]1)CC2 (stereo not shown) and report it.
29

Which EC50 is reported for this compound? N#C/C=C1/c2ccccc2CCC1Cc1c[nH]c(=S)[nH]1 (stereo not shown)
990

Look up EC50: S=c1[nH]cc(CC2CCc3c(Br)cccc32)[nH]1 (stereo not shown)
87

State the recorded EC50 for this entry: CC1=CCCCC1Cc1c[nH]c(=S)[nH]1 (stereo not shown)
85

For C=CC1=CCCC1Cc1c[nH]c(=S)[nH]1 (stereo not shown) , what is its reported EC50?
422

Bench note: what EC50 did S=c1[nH]cc(C2Cc3ccc(Cl)cc3C2)[nH]1 (stereo not shown) show?
57.5

Reported EC50, compound Fc1cc(F)cc(C2=CCC[C@H]2Cc2c[nH]c(=S)[nH]2)c1 : ____
472

Returns the measured EC50 for the input compound. Input: COc1ccc2c(c1)C(Cc1c[nH]c(=S)[nH]1)CC2 (stereo not shown)
30

Item under review: CC1=C(C)CC(Cc2c[nH]c(=S)[nH]2)CC1 (stereo not shown) . Reported EC50?
25

Would you mind telling me what EC50 value was observed for Fc1ccc(C2=CCC[C@@H]2Cc2c[nH]c(=S)[nH]2)cc1 ?
269

Which value of EC50 has been reported for S=c1[nH]cc(CC2CCC3=C(CCCC3)C2)[nH]1 (stereo not shown) in the records?
86

* * *

molecular target: alpha2C adrenergic receptors (Homo sapiens, UniProt P18825); construct: expressed in transfected cells; host or cells: NIH-3T3; assay: Receptor Selection and Amplification Technology (RSAT) assay, alpha2C; type: cell-based; conditions: fraction of maximal effect of standard full agonist brimonidine (UK14304)
Sequence (P18825 whole entry): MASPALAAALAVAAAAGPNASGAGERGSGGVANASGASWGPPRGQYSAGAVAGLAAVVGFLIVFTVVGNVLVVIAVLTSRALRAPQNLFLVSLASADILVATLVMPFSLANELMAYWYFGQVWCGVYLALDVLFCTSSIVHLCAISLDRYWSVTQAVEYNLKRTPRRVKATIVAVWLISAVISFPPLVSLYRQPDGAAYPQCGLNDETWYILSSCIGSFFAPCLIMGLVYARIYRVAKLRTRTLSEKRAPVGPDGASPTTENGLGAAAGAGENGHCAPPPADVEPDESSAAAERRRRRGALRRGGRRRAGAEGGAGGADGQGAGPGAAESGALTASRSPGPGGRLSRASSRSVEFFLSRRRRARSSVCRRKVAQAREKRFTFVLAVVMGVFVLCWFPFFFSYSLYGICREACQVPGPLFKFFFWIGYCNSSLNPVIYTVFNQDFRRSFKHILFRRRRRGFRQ
A collection of compounds and their measured Alpha 2C intrinsic activity
No unit in the answer, please; the number alone is enough.

As a guide, the following entries are already answered.
compound: S=c1[nH]cc(CC2CCc3c(Br)cccc32)[nH]1 (stereo not drawn)
outcome-measure: Alpha 2C intrinsic activity
experimental-result: 0.59
--
compound: Fc1ccc(C2=CCC[C@H]2Cc2c[nH]c(=S)[nH]2)cc1
outcome-measure: Alpha 2C intrinsic activity
experimental-result: 0.61

Give the measured Alpha 2C intrinsic activity of CC1CC(Cc2c[nH]c(=S)[nH]2)C(=O)c2ccccc21 (stereo not drawn) .
0.61

* * *

molecular target: alpha2B adrenergic receptors (Homo sapiens, UniProt P18089); construct: expressed in transfected cells; host or cells: NIH-3T3; test: Receptor Selection and Amplification Technology (RSAT) assay, alpha2B; assay type: cell-based; conditions: fraction of maximal effect of standard full agonist brimonidine (UK14304)
Alpha 2B intrinsic activity: recorded values
API doc: respond with a numeric literal and nothing else, no unit.

Completed entries (count: 3):
molecule: CC=CC1=CCCC1Cc1c[nH]c(=S)[nH]1 (centres unmarked)
Alpha 2B intrinsic activity: 0.88

molecule: S=c1[nH]cc(C2Cc3cccc(Br)c3C2)[nH]1 (centres unmarked)
Alpha 2B intrinsic activity: 1.07

molecule: Fc1ccc2c(c1)CC(c1c[nH]c(=S)[nH]1)C2 (centres unmarked)
Alpha 2B intrinsic activity: 0.75

Please report the recorded Alpha 2B intrinsic activity for S=c1[nH]cc(CC2CCC=C2c2ccc(Cl)s2)[nH]1 (centres unmarked) .
0.69

Return reported Alpha 2B intrinsic activity; argument: N#C/C=C1\c2ccccc2CCC1Cc1c[nH]c(=S)[nH]1 (centres unmarked)
0.94

Bench note: what Alpha 2B intrinsic activity did S=c1[nH]cc(CC2CCc3ccccc3C2)[nH]1 (centres unmarked) show?
0.65

# Alpha 2B intrinsic activity lookup, item C=CC1=CCCC1Cc1c[nH]c(=S)[nH]1 (centres unmarked)
1.11

Requested field: Alpha 2B intrinsic activity. Item: S=c1[nH]cc(CC2CCc3sccc3C2)[nH]1 (centres unmarked) [drawing 22]
0.74

* * *

Biological target: alpha2B adrenergic receptors (Homo sapiens)
Construct: expressed in transfected cells; host or cells: NIH-3T3
Sequence (P18089 1-450): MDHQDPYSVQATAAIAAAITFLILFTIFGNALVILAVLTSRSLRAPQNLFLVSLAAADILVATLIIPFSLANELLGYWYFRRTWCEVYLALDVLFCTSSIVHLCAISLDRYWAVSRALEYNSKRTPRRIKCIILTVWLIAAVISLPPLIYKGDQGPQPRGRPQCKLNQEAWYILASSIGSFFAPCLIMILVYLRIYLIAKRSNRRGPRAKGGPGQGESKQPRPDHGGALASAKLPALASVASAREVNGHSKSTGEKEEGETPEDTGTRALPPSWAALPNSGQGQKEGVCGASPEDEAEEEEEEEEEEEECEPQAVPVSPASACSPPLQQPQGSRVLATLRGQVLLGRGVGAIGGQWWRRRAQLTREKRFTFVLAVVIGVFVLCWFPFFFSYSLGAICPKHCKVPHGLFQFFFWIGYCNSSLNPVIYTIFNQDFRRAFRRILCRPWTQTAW
Assay: Receptor Selection and Amplification Technology (RSAT) assay, alpha2B
Assay type: cell-based
Settings: NA = not active at concentrations less than 10 micromolar, read-out: Alpha 2B EC50
From the text: The imidazole-2-thione compounds of the invention are agonists of alpha2 adrenergic receptors, particularly they tend to be specific or selective agonists of alpha2B and/or to a lesser extent alpha2C adrenergic receptors, in preference over alpha2A adrenergic receptors. […] Al., 1995, Pharmacol. Toxicol. 76, pp. 308-311 (incorporated herein by reference) and is also described below. […]
outcome-measure: EC50 (nM)
Give the number; nM is assumed, so skip it.

compound: O=C1C2=C(CCC1Cc1c[nH]c(=S)[nH]1)NCCC2 (centres unmarked)
EC50 / nM: 755
//
compound: Fc1ccc(C2=CCCC2Cc2c[nH]c(=S)[nH]2)c(F)c1 (centres unmarked)
EC50 / nM: 219
//
compound: CC1=CC(Cc2c[nH]c(=S)[nH]2)CC1 (centres unmarked)
EC50 / nM: 81

Now look at this entry.
For the compound shown here, COc1cc(F)c2c(c1)CC(c1c[nH]c(=S)[nH]1)C2 (centres unmarked) , give the reported EC50.
22

Reference source: patent US7323485B2
